MEASUREMENT_NOTES: NCI Yeast Anticancer Drug Screen. Data for the mec2-1 strain (AID 157)
ASSAY_CONTEXT: S. cerevisiae mec2-1 strain, at 5.0 µM (retest, dose inferred, filed as 0.5)
The panel holds about 79,000 compounds, 15% with a hit somewhere; the sample as a whole holds those more often. Calls of active or inactive are those of the source. Cut-off read from the data, not from the text of the source: active = growth inhibition above about 70%; inactive = the rest.
Log the outcome using a class from active, inactive

Reference set, count: 5
| MOLECULE | LABEL_CLASS |
| --- | --- |
| Oc1ccc(Cl)cc1Cc1ccccc1 | inactive |
| CC1(C)N([O-])[N+](=O)C1(C)Br (stereo not given) | inactive |
| Oc1cccnc1[Se] | inactive |
| N#CC(C#N)=Cc1cc(Cl)ccc1O | inactive |
| S=C1NC2(CCCCC2)NC12CCCCC2 | inactive |

How was `[Br][Sn]([CH]1CCCCC1)([CH]1CCCCC1)[CH]1CCCCC1` classified in this test?
active

Could you check what this test reported for `Nc1nc(N)c(-c2ccc(Cl)c(Cl)c2)c(CCc2ccc(CNC(=O)c3ccc(S(=O)(=O)F)cc3)cc2)n1` ?
inactive

Can you look up the reported call for CC(Cc1ccccc1)[N+](=O)[O-] (stereo not given) for me?
inactive

Fill in: this test's call for CCC[CH2][Sn]([Cl])([CH2]C)[O][Sn]([Cl])([CH2]C)[CH2]CCC (stereo not given) is ___
active

# outcome recorded in this test, key = CC(Cc1ccccc1)N(C)Cc1ccc(-c2ccccc2)o1 (stereo not given)
inactive

Call for entry `COc1c(NC(=O)CC(C)=O)[c]([Hg][O]C(C)=O)c(OC)c(Cl)[c]1[Hg][O]C(C)=O` :
inactive

How did this test come out for `c1ccc([CH2][Pb]([c]2ccccc2)([c]2ccccc2)[c]2ccccc2)cc1` ?
active

Answer briefly: the call reported for `Cc1ccccc1C[As](C)(=O)O` in this assay.
inactive

----------
MEASUREMENT_NOTES: NCI Yeast Anticancer Drug Screen. Data for the rad50 strain (AID 155);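 note: 0% = growth of vehicle-only cultures of the same strain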
ASSAY_CONTEXT: S. cerevisiae rad50 strain growth inhibition; at 50.0 µM; stronger effect = higher value
The panel holds about 79,000 compounds, 15% with a hit somewhere; the sample as a whole holds those more often.
Parameter growth inhibition: see the listing below.
Field: numeric (%). Do not append units.

| COMPOUND | QUANTITY_MEASURED | VALUE_OBSERVED |
| --- | --- | --- |
| COc1cc2c(c(OC)c1OC)-c1ccc(O)c(=O)cc1C(NC(C)=O)CC2 (configuration not stated) | growth inhibition | -26.1 |
| Cc1cc(-c2ccccc2)cc(C)[n+]1[O-] | growth inhibition | 20.7 |
| COC1(OC)C(Cl)=C(Cl)C(Cl)=C1Cl | growth inhibition | 46.4 |
| CC1=C(CO)C2=C(C)C3(CC3)[C@@](C)(O)C(=O)C2=C1 | growth inhibition | 14 |
| CC(C)C1(NC(=O)C2C=C3c4cccc5[nH]cc(c45)CC3N(C)C2)OC2(O)C3CCCN3C(=O)C(Cc3ccccc3)N2C1=O (configuration not stated) | growth inhibition | 96.2 |
| C[CH2][Sn]([CH2]C)([O]C(C)=O)[O][Sn]([CH2]C)([CH2]C)[O]C(C)=O | growth inhibition | 64 |
| [Cl][Pt+2][Cl].[NH-]C1CCCC2CCC[N-]C12 (configuration not stated) | growth inhibition | 20.6 |
| Cc1cccc2cc3ccccc3cc12 | growth inhibition | 95.3 |

Given the entry `Nc1nc(N)c(-c2ccc(Cl)c(Cl)c2)c(CCc2ccc(CNC(=O)c3cc(S(=O)(=O)F)ccc3Cl)cc2)n1` , report its measured growth inhibition.
50.5

# query: growth inhibition of entry CC/C(=C(/CC)c1ccc(OP(N)(=O)N(CCCl)CCCl)cc1)c1ccc(OP(N)(=O)N(CCCl)CCCl)cc1 (configuration not stated)
17.1

Quick one: growth inhibition of `CCC[CH2][Sn]1([CH2]CCC)[O]CC(c2ccccn2)C[O]1` ?
87.2

What does the data say about its growth inhibition? Entry: `O=C1C(=O)c2cccc3cccc1c23`
64.2
